# Emax per record follows
- Measured Target: human sphingosine-1-phosphate receptor 1 (S1P1) (Homo sapiens, UniProt P21453)
- Sequence (P21453 whole entry): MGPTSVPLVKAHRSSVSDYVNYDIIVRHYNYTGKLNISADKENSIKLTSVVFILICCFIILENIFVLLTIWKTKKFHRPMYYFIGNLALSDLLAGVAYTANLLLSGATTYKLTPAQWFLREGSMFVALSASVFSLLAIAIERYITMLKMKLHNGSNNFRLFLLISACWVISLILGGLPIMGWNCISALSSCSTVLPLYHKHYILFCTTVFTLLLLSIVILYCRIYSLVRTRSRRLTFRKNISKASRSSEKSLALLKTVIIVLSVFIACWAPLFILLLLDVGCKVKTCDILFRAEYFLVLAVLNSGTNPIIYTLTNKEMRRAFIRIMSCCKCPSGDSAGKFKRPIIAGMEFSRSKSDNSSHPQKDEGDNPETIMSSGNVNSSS
- Assay Text: Inhibition of cAMP production (HTRF cAMP HiRange), S1P1 CHO-K1 cells
- Type: cell-based
- Condition Notes: CHO-K1; efficacy normalized to maximum efficacy of fingolimod; read-out: hS1P1 CAMP SPAN

Consider the worked cases shown below.
>>> df
                               entry_smiles                           measured_target  measurement
0  CC(C)Nc1ccc(-c2nc(-c3ccc4c(c3)CCNC4=O)no2)cc1C#N  human sphingosine-1-phosphate receptor 1 (S1P1) (Homo sapiens, UniProt P21453)        > 75%
1  CCC1(CC)CC(=O)c2cc(-c3nc(-c4cnccc4C(F)(F)F)no3)ccc2O1  human sphingosine-1-phosphate receptor 1 (S1P1) (Homo sapiens, UniProt P21453)        > 75%
2  CCC1(CC)CC(=O)c2cc(-c3nc(-c4ccncn4)no3)ccc2O1  human sphingosine-1-phosphate receptor 1 (S1P1) (Homo sapiens, UniProt P21453)        < 75%
3  CC(C)(CO)Cn1nnc2cc(-c3noc(-c4cnccc4C(F)(F)F)n3)ccc21  human sphingosine-1-phosphate receptor 1 (S1P1) (Homo sapiens, UniProt P21453)        > 75%
4  CCC1(CC)CC(=O)c2cc(-c3nc(-c4ccc5[nH]c(=O)oc5c4)no3)ccc2O1  human sphingosine-1-phosphate receptor 1 (S1P1) (Homo sapiens, UniProt P21453)        > 75%
5  CCC1(CC)CC(=O)c2cc(-c3nc(-c4ccc(NC(C)=O)cc4OC)no3)ccc2O1  human sphingosine-1-phosphate receptor 1 (S1P1) (Homo sapiens, UniProt P21453)        > 75%
6  CCC1(CC)CC(=O)c2cc(-c3nc(-c4cccs4)no3)ccc2N1  human sphingosine-1-phosphate receptor 1 (S1P1) (Homo sapiens, UniProt P21453)        < 75%

Sure, the documented Emax for "CC(C)n1nnc2cc(-c3nc(-c4ccc5nonc5c4)no3)ccc21" is > 75%

###

- Measured Target: human sphingosine-1-phosphate receptor 1 (S1P1) (Homo sapiens)
- Assay Text: Inhibition of cAMP production (HTRF cAMP HiRange), S1P1 CHO-K1 cells
- Format: cell-based
- Condition Notes: inhibition of cAMP production, S1P1; read-out: hS1P1 CAMP pEC50 (converted)
Observable: EC50

                               entry_smiles  measurement
0  COc1ncccc1-c1noc(-c2ccc3c(c2)nnn3C(C)C)n1     < 316 nM

Sure, the documented EC50 for "CCC1(CC)CC(=O)c2cc(-c3nc(-c4ccc5ncccc5c4)no3)ccc2O1" is > 316 nM

Sure, the documented EC50 for "CCC1(CC)CC(=O)c2cc(-c3nc(-c4ccc(NS(C)(=O)=O)cc4OC)no3)ccc2O1" is < 316 nM

Sure, the documented EC50 for "COc1cccnc1-c1noc(-c2ccc3c(c2)nnn3C(C)C)n1" is > 316 nM

Sure, the documented EC50 for "O=C1CC(CO)(CO)Oc2ccc(-c3nc(-c4ccncc4)no3)cc21" is > 316 nM

Sure, the documented EC50 for "CCC1(CC)CC(=O)c2cc(-c3ncc(-c4ccnc(O)c4)cn3)ccc2O1" is > 316 nM

###

- Measured Target: sphingosine-1-phosphate receptor 5 (S1P5) (Homo sapiens, UniProt Q9H228)
- Sequence (Q9H228 whole entry): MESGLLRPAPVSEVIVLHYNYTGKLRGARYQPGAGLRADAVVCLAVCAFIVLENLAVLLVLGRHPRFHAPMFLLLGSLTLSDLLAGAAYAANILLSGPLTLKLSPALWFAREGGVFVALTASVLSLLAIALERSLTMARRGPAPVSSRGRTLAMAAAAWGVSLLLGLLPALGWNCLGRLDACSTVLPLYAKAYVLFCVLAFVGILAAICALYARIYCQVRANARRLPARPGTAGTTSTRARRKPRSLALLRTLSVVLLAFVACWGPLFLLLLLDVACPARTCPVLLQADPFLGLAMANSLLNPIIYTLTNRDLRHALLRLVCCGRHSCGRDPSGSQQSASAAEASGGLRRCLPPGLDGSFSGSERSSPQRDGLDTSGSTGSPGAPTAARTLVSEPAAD
- Assay Text: Selectivity: inhibition of cAMP production (HTRF), S1P5 CHO-K1 cells
- Type: cell-based
- Condition Notes: inhibition of cAMP production; read-out: hS1P5 cAMP pEC50 (converted)
- Procedure: Cell Culturing and Assay Plating Cell lines were cultured in AssayComplete™ Media 6 (DiscoverX Corporation, Cat #: 920018GF2) at 37° C. and 5% CO2 in a humidified CO2 and temperature-controlled incubator. […] S1P3 and S1P5 Agonist-promoted G-protein responses were determined by measuring changes in intracellular cAMP using the HTRF® cAMP HiRange kit (CisBio, Cat #: 62AM6PEJ) based on time-resolved fluorescence resonance energy transfer (TR-FRET) technology. […]
Observable: EC50

>>> df
                               entry_smiles  observable  measurement
0  CCC1(CC)CC(=O)c2cc(-c3nc(-c4ccnc(O)c4)no3)ccc2O1        EC50      > 10 µM
1  CC(C)n1nnc2cc(-c3nc(-c4cccc5c4OCO5)no3)ccc21        EC50      > 10 µM
2  COc1ccc(-c2noc(-c3ccc4c(c3)nnn4CC(C)(C)O)n2)c(C)c1        EC50      > 10 µM
3  CC(C)n1nnc2cc(-c3nc(-c4cccc5c4OCCC5)no3)ccc21        EC50      > 10 µM
4  COc1ccccc1-c1nnc(-c2ccc3c(c2)oc(=O)n3C)o1        EC50      > 10 µM

Next molecule, please.
Sure, the documented EC50 for "COc1cnccc1-c1nc(-c2ccc3c(ccn3C(C)C)c2)no1" is < 10 µM

###

- Measured Target: human sphingosine-1-phosphate receptor 1 (S1P1) (Homo sapiens, UniProt P21453)
- Assay Text: Inhibition of cAMP production (HTRF cAMP HiRange), S1P1 CHO-K1 cells
- Format: cell-based
- Condition Notes: inhibition of cAMP production, S1P1; read-out: hS1P1 CAMP pEC50 (converted)
Observable: EC50

Consider the worked cases shown below.
>>> print(df.to_string())
                                   compound  measurement
0  CCC1(CC)CC(=O)c2cc(-c3nc(-c4cnc[nH]4)no3)ccc2O1 [Compound 466]     > 316 nM
1  CCC1(CC)CC(=O)c2cc(-c3nc(-c4ccoc4)no3)ccc2O1 [Compound 495]     < 316 nM
2  CC(C)n1ccc2cc(-c3noc(-c4ccccc4F)n3)ccc21 [Compound 387]     > 316 nM
3  CC(C)Nc1ccc(-c2nnc(-c3ccc4c(c3)CCC(=O)N4)o2)cc1C#N [Compound 473]     < 316 nM

Sure, the documented EC50 for CCC1(CC)CC(=O)c2cc(-c3nc(-c4cncc(C)c4)no3)ccc2O1 [Compound 563] is < 316 nM

Sure, the documented EC50 for COc1ccc2nc(-c3ccc4c(c3)nnn4C(C)C)oc2c1 [Compound 426] is < 316 nM

Sure, the documented EC50 for COc1ccccc1-c1csc(-c2cnc3c(ccn3C(C)C)c2)n1 [Compound 401] is > 316 nM

Sure, the documented EC50 for CCC1(CC)CC(=O)c2cc(-c3nc(-c4cnccc4C)no3)ccc2O1 [Compound 549] is < 316 nM

Sure, the documented EC50 for Cn1cnc2ccc(-c3nnc(-c4ccc(NCC(F)(F)CO)c(C#N)c4)o3)cc21 [Compound 635] is < 316 nM

Sure, the documented EC50 for COc1ccc2oc(-c3ccc4c(c3)nnn4C(C)C)nc2c1 [Compound 425] is < 316 nM

Sure, the documented EC50 for Cc1cccc2oc(-c3ccc4c(c3)nnn4C(C)C)nc12 [Compound 418] is < 316 nM

Sure, the documented EC50 for CC(C)n1nnc2cc(-c3nc4c(Cl)cccc4o3)ccc21 [Compound 427] is > 316 nM

Sure, the documented EC50 for CC(C)n1nnc2cc(-c3nc(-c4ccccn4)co3)ccc21 [Compound 474] is > 316 nM

Sure, the documented EC50 for Cc1ccccc1-c1nsc(-c2ccc3c(ccn3C(C)C)c2)n1 [Compound 381] is > 316 nM

Sure, the documented EC50 for CC(C)Cn1nnc2cc(-c3nc4cccc(Br)c4o3)ccc21 [Compound 454] is < 316 nM

Sure, the documented EC50 for N#Cc1cc(-c2nnc(-c3ccc4c(c3)CCC(=O)N4)o2)ccc1NCC(F)F [Compound 477] is < 316 nM

Sure, the documented EC50 for N#Cc1cc(-c2nc(-c3ccc4sc(N)nc4c3)no2)ccc1NCC1CC1 [Compound 440] is < 316 nM

Sure, the documented EC50 for CNc1ccccc1-c1coc(-c2ccc3c(c2)nnn3C(C)C)n1 [Compound 587] is > 316 nM

Sure, the documented EC50 for CC(C)n1ccc2cc(-c3nc(-c4ccccc4F)cs3)cnc21 [Compound 402] is < 316 nM

###

# EC50 per record follows
- Measured Target: UniProt:P21453
- Assay Text: Inhibition of cAMP production (HTRF cAMP HiRange), S1P1 CHO-K1 cells
- Format: cell-based
- Condition Notes: inhibition of cAMP production; potency; read-out: hS1P1 CAMP pEC50 (converted)

Sure, the documented EC50 for CCC1(CC)CC(=O)c2cc(-c3nc(-c4sccc4C)no3)ccc2O1 [Compound 265] is < 316 nM

Sure, the documented EC50 for CC(C)n1nnc2cc(-c3noc(-c4cccc(F)c4)n3)ccc21 [Compound 64] is < 316 nM

Sure, the documented EC50 for CCC1(CC)CC(=O)c2cc(-c3nc(-c4cccc(OC)c4)no3)ccc2O1 [Compound 71] is > 316 nM

Sure, the documented EC50 for COc1ccccc1-c1nnc(-c2ccc3c(c2)c(=O)on3C)o1 [Compound 340] is > 316 nM

Sure, the documented EC50 for Cc1nccnc1-c1nc(-c2ccc3c(c2)nnn3C(C)C)no1 [Compound 44] is > 316 nM

Cited source for all entries: patent US20230114241A1
